test system: HeLa cells; test: MTT assay, cell growth inhibition on HeLa cells; assay type: cell-based; settings: 72 h
MEASUREMENT TYPE: IC50 (µM)

[P] COc1c(O)c(CC=C(C)C)cc2c1Oc1cc(O)c(CC=C(C)C)c(O)c1C(=O)O2 [Compound 1, Paucinervin A]
[Q] COC(=O)c1c(O)cc(O)cc1Oc1c(O)c(OC)cc(CC=C(C)C)c1OC [Compound 2, Paucinervin B]
Request: Returns: the argument ( P or Q ) having the larger IC50. To answer, give the label that identifies your chosen option.
Result: P
